experimental target: Human BCL-XL protein (N-terminal HiBiT tagged BCL-XL in HT1080 cells) (Homo sapiens)
Construct: expressed in transfected cells; host or cells: HT-1080 (ATCC CCL-121), stably transduced with lentivirus pLV-UBC-N-HiBiT-BCL-XL-PGK-puro and selected with puromycin
experiment notes: HiBiT based degradation assay
Assay type: cell-based
details: BCL-XL degradation; HT1080 cells expressing HiBiT-BCL-XL; 24 h; read-out: EC50 (24 h)
Recorded measurements of DC50, one per entry

May I ask what DC50 has been recorded for Cc1c(Oc2ccccc2CCC(=O)Nc2ccc(C3CCC(=O)NC3=O)cc2)cccc1-c1ccc(N2CCc3cccc(C(=O)Nc4nc5ccccc5s4)c3C2)nc1C(=O)O (stereo not drawn) ?
< 100 nM

Param item = Cc1c(OCCCCC2CCN(CC(=O)Nc3cccc4c(C5CCC(=O)NC5=O)nn(C)c34)CC2)cccc1-c1ccc(N2CCc3cccc(C(=O)Nc4nc5ccccc5s4)c3C2)nc1C(=O)O (stereo not drawn) ; retrieve measured DC50.
100 to 1000 nM

Give its DC50 value. Item: Cc1c(O[C@H]2CC[C@H](CCCCN3CCN(c4ccc5c(C6CCC(=O)NC6=O)nn(C)c5c4)[C@H](C)C3)CC2)cccc1-c1ccc(N2CCc3cccc(C(=O)Nc4nc5ccccc5s4)c3C2)nc1C(=O)O (stereo partly drawn) [Compound 300a]
< 100 nM

* * *

experimental target: Human BCL-XL protein (N-terminal HiBiT tagged BCL-XL in HT1080 cells) (Homo sapiens, UniProt Q07817)
Construct: expressed in transfected cells; host or cells: HT-1080 (ATCC CCL-121), stably transduced with lentivirus pLV-UBC-N-HiBiT-BCL-XL-PGK-puro and selected with puromycin
Sequence (Q07817 whole entry): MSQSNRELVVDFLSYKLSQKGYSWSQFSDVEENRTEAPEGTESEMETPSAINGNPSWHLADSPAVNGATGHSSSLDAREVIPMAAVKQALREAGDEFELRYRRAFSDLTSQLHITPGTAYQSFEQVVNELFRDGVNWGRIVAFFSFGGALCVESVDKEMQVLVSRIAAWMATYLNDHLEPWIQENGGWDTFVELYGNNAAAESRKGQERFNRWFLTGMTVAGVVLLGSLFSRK
experiment notes: HiBiT based degradation assay
Assay type: cell-based
details: BCL-XL degradation normalized with DMSO control; HT1080 cells expressing HiBiT-BCL-XL; 6 h
quantity name: Ymin (6 h)

Cc1c(O[C@@H](C)CCC2CCN(CC(=O)Nc3cccc4c(C5CCC(=O)NC5=O)nn(C)c34)CC2)cccc1-c1ccc(N2CCc3cccc(C(=O)Nc4nc5ccccc5s4)c3C2)nc1C(=O)O (stereo partly drawn) [Compound 169a]
B (50% ≤ Ymin < 70%)
Cc1c(-c2ccc(N3CCc4cccc(C(=O)Nc5nc6ccccc6s5)c4C3)nc2C(=O)NCC(=O)Nc2ccc3c(C4CCC(=O)NC4=O)nn(C)c3c2)cnn1CC12CC3CC(CC(C3)C1)C2 (stereo not drawn) [Compound 115]
B (50% ≤ Ymin < 70%)

* * *

Overview of recorded DC50 for various molecules
experimental target: Human BCL-XL protein (N-terminal HiBiT tagged BCL-XL in HT1080 cells) (Homo sapiens, UniProt Q07817)
Construct: expressed in transfected cells; host or cells: HT-1080 (ATCC CCL-121), stably transduced with lentivirus pLV-UBC-N-HiBiT-BCL-XL-PGK-puro and selected with puromycin
experiment notes: HiBiT based degradation assay
Assay type: cell-based
details: BCL-XL degradation; HT1080 cells expressing HiBiT-BCL-XL; 24 h; read-out: EC50 (24 h)

# example entries with known answers
Cc1c(O[C@H]2CC[C@H](CCCN3CC[C@H](c4ccc5c(C6CCC(=O)NC6=O)nn(C)c5c4)C3)CC2)cccc1-c1ccc(N2CCc3cccc(C(=O)Nc4nc5ccccc5s4)c3C2)nc1C(=O)O (single isomer, unassigned) [Compound 331a]
< 100 nM
Cc1c(O[C@H]2CC[C@H](CCCN3CCN(c4cccc5c(C6CCC(=O)NC6=O)nn(C)c45)C[C@@H]3C)CC2)cccc1-c1ccc(N2CCc3cccc(C(=O)Nc4nc5ccccc5s4)c3C2)nc1C(=O)O (stereo partly shown) [Compound 275b]
< 100 nM
Cc1c(O[C@H]2CC[C@H](CC(=O)N3CCN(c4cccc5c(C6CCC(=O)NC6=O)nn(C)c45)CC3)CC2)cccc1-c1ccc(N2CCc3cccc(C(=O)Nc4nc5ccccc5s4)c3C2)nc1C(=O)O (stereo partly shown) [Compound 182a]
< 100 nM

For the next question, use this molecule.
Consider the molecule shown here: Cc1c(O[C@H]2CC[C@H](CCCCN3CCC(Oc4cccc5c(C6CCC(=O)NC6=O)nn(C)c45)CC3)CC2)cccc1-c1ccc(N2CCc3cccc(C(=O)Nc4nc5ccccc5s4)c3C2)nc1C(=O)O (stereo partly shown) [Compound 327a] What is its recorded DC50?
< 100 nM

* * *

experimental target: Human BCL-XL protein (N-terminal HiBiT tagged BCL-XL in HT1080 cells) (Homo sapiens, UniProt Q07817)
Construct: expressed in transfected cells; host or cells: HT-1080 (ATCC CCL-121), stably transduced with lentivirus pLV-UBC-N-HiBiT-BCL-XL-PGK-puro and selected with puromycin
experiment notes: HiBiT based degradation assay
Format: cell-based
details: BCL-XL degradation; HT1080 cells expressing HiBiT-BCL-XL; 24 h; read-out: EC50 (24 h)
Procedure: Human BCL-XL protein coding open reading frame fused with N-terminal HiBiT coding sequence was synthesized from Integrated DNA Technologies (IDT). […] HT1080 cells expressing N-terminal HiBiT tagged BCL-XL were dispensed into a 384-well plate pre-spotted with compounds at varying concentrations. […] After incubation, luminescence was read on a PHERAstar FSX Plate Reader (BMG). […]
In this section, each of the molecules is paired with its reported DC50.

Known DC50 results, listed for orientation:
Cc1c(O[C@H]2CC[C@H](CCCN3CCN(c4ccc5c(C6CCC(=O)NC6=O)nn(C)c5c4C)CC3)CC2)cccc1-c1ccc(N2CCc3cccc(C(=O)Nc4nc5ccccc5s4)c3C2)nc1C(=O)O (stereo partly drawn) [Compound 334a]
< 100 nM
Cc1c(O[C@H]2CC[C@H](CCCN3CCN(c4ccc5c(C6CCC(=O)NC6=O)nn(C)c5c4)CC3)CC2)cccc1-c1ccc(N2CCc3cccc(C(=O)Nc4nc5ccccc5s4)c3C2)nc1C(=O)O (stereo partly drawn) [Compound 148a]
< 100 nM

The record that follows has no DC50 shown yet.
DC50 for Cc1c(O[C@H]2CC[C@H](CCC[C@@H](C)N3CCN(c4cccc5c(C6CCC(=O)NC6=O)nn(C)c45)CC3)CC2)cccc1-c1ccc(N2CCc3cccc(C(=O)Nc4nc5ccccc5s4)c3C2)nc1C(=O)O (single isomer, unassigned) [Compound 349b] ?
< 100 nM

* * *

The compounds listed here are annotated with their DC50.
experimental target: Human BCL-XL protein (N-terminal HiBiT tagged BCL-XL in HT1080 cells) (Homo sapiens, UniProt Q07817)
Construct: expressed in transfected cells; host or cells: HT-1080 (ATCC CCL-121), stably transduced with lentivirus pLV-UBC-N-HiBiT-BCL-XL-PGK-puro and selected with puromycin
experiment notes: HiBiT based degradation assay
Assay type: cell-based
details: BCL-XL degradation; HT1080 cells expressing HiBiT-BCL-XL; 6 h; read-out: EC50 (6 h)
Protocol: Human BCL-XL protein coding open reading frame fused with N-terminal HiBiT coding sequence was synthesized from Integrated DNA Technologies (IDT). […] HT1080 cells expressing N-terminal HiBiT tagged BCL-XL were dispensed into a 384-well plate pre-spotted with compounds at varying concentrations. […] After incubation, luminescence was read on a PHERAstar FSX Plate Reader (BMG). […]

Cc1c(OCCCN2CCN(CCCOc3ccc4c(C5CCC(=O)NC5=O)nn(C)c4c3)CC2)cccc1-c1ccc(N2CCc3cccc(C(=O)Nc4nc5ccccc5s4)c3C2)nc1C(=O)O (stereo not shown)
< 0.1 µM
Cc1c(OCCC2CCN(CC(=O)Nc3cccc4c(C5CCC(=O)NC5=O)nn(C)c34)CC2)cccc1-c1ccc(N2CCc3cccc(C(=O)Nc4nc5ccccc5s4)c3C2)nc1C(=O)O (stereo not shown)
< 0.1 µM
Cc1cc(OCCCN2C[C@@H](C)N(CC(=O)N3CCN(c4ccc5c(C6CCC(=O)NC6=O)nn(C)c5c4)CC3)[C@@H](C)C2)ccc1-c1ccc(N2CCc3cccc(C(=O)Nc4nc5ccccc5s4)c3C2)nc1C(=O)O (stereo partly shown) [Compound 154a]
< 0.1 µM
Cc1c(OCCCCCCCN2CCN(c3cccc4c(C5CCC(=O)NC5=O)nn(C)c34)CC2)cccc1-c1ccc(N2CCc3cccc(C(=O)Nc4nc5ccccc5s4)c3C2)nc1C(=O)O (stereo not shown)
1 to 10 µM
Cc1c(OCCOc2ccc(CC(=O)Nc3cccc4c(C5CCC(=O)NC5=O)nn(C)c34)cc2)cccc1-c1ccc(N2CCc3cccc(C(=O)Nc4nc5ccccc5s4)c3C2)nc1C(=O)O (stereo not shown)
0.1 to 1 µM

Using the record for Cc1c(-c2ccc(N3CCc4cccc(C(=O)Nc5nc6ccccc6s5)c4C3)nc2C(=O)NCCCCCC(=O)Nc2cccc3c(C4CCC(=O)NC4=O)nn(C)c23)cnn1CC12CC3CC(CC(C3)C1)C2 (stereo not shown) , report its DC50.
< 0.1 µM

Which DC50 is listed for Cc1c(OCCCN2[C@H](C)CN(CC(=O)Nc3ccc4c(C5CCC(=O)NC5=O)nn(C)c4c3)C[C@@H]2C)cccc1-c1ccc(N2CCc3cccc(C(=O)Nc4nc5ccccc5s4)c3C2)nc1C(=O)O (stereo partly shown) [Compound 131a] ?
< 0.1 µM

Give its DC50 value. Item: Cc1c(Oc2ccc(CCCN3CCN(c4cccc5c(C6CCC(=O)NC6=O)nn(C)c45)CC3)cc2)cccc1-c1ccc(N2CCc3cccc(C(=O)Nc4nc5ccccc5s4)c3C2)nc1C(=O)O (stereo not shown)
0.1 to 1 µM

// lookup DC50 for Cc1c(OCCOC2CCN(CC(=O)Nc3ccc4c(C5CCC(=O)NC5=O)nn(C)c4c3)CC2)cccc1-c1ccc(N2CCc3cccc(C(=O)Nc4nc5ccccc5s4)c3C2)nc1C(=O)O (stereo not shown)
< 0.1 µM

Returns the measured DC50 for the input compound. Input: Cc1c(Oc2cccc(CCCN3CCN(c4ccc5c(C6CCC(=O)NC6=O)nn(C)c5c4)CC3)c2)cccc1-c1ccc(N2CCc3cccc(C(=O)Nc4nc5ccccc5s4)c3C2)nc1C(=O)O (stereo not shown)
< 0.1 µM

meta.source: patent US20240238423A9
